Molecular target: T1, human EphA4 (Homo sapiens, UniProt P54764)
T1 construct: made in house; not restated for the human SEAP-His protein
T1 sequence (P54764 20-547): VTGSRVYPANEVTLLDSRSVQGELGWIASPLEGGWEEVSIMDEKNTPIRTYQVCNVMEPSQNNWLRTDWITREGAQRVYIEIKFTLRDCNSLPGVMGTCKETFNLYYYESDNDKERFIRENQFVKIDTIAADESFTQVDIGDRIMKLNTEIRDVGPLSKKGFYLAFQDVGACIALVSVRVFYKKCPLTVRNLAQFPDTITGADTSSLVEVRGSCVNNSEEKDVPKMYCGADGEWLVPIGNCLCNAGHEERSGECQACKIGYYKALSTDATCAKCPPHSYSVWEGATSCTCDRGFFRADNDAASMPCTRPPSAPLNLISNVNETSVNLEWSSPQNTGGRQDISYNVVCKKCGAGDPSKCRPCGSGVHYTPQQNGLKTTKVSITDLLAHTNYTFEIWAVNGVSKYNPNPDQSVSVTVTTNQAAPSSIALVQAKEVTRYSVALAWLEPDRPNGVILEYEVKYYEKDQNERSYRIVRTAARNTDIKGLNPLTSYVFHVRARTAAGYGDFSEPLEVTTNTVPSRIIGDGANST
Assay: Affinity of humanized antibodies by SPR (Biacore T200)
Assay type: binding
Conditions: human EphA4 extracellular region-SEAP-His; KD=kd/ka
observation-type: Kd (nM)
Give bare numbers, in nM.

Use these answered entries as a reference point.
90 (antibody, V domains shown, constant regions without entry; synthetic humanized antibody light chain variable region sequence; synthetic humanized antibody heavy chain variable region sequence) VL: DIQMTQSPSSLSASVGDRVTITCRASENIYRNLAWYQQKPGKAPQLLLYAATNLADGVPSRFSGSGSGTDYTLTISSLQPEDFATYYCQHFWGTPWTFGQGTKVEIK VH: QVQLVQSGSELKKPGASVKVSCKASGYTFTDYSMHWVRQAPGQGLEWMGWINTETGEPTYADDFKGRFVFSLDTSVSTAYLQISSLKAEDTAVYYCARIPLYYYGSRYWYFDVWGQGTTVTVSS
1.5
81 (antibody, V domains shown, constant regions without entry; synthetic humanized antibody light chain variable region sequence; synthetic humanized antibody heavy chain variable region sequence) VL: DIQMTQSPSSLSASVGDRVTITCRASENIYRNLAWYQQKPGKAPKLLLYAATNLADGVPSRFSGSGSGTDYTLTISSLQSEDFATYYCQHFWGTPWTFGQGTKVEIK VH: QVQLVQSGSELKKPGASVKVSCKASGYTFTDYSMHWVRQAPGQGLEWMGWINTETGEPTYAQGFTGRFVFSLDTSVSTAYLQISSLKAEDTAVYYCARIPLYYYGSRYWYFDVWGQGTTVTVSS
1.6
143 (antibody, V domains shown, synthetic humanized antibody heavy chain variable region sequence; synthetic humanized antibody light chain variable region sequence) VH: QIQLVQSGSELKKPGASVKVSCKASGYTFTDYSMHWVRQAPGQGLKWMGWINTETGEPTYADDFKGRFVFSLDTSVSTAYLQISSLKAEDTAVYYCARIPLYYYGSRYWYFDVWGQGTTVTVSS VL: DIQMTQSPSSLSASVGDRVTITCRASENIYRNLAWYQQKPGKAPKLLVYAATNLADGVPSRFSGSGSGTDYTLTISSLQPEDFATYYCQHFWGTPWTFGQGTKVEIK
1.5
88 (antibody, V domains shown, constant regions without entry; synthetic humanized antibody light chain variable region sequence; synthetic humanized antibody heavy chain variable region sequence) VL: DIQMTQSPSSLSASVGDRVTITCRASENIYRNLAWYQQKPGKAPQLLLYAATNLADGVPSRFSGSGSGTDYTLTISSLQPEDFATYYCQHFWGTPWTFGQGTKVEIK VH: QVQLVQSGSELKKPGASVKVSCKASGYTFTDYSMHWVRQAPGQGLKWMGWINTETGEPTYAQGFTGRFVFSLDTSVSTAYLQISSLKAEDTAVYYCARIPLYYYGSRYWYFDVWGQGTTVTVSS
1.4
151 (antibody, V domains shown, synthetic humanized antibody heavy chain variable region sequence; synthetic humanized antibody light chain variable region sequence) VH: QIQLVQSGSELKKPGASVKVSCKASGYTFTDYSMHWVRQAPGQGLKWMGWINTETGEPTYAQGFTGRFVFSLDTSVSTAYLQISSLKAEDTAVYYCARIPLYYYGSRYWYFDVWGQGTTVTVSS VL: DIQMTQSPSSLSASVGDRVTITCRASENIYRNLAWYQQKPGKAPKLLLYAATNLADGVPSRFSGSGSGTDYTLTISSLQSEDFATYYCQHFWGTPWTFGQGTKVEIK
1.7
135 (antibody, V domains shown, synthetic humanized antibody heavy chain variable region sequence; synthetic humanized antibody light chain variable region sequence) VH: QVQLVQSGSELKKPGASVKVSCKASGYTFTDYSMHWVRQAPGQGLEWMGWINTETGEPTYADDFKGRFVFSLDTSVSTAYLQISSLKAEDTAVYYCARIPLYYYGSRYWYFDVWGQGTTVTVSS VL: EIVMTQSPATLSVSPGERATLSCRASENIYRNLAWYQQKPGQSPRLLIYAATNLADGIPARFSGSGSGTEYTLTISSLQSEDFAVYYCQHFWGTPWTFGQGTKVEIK
1.3

Next, consider the following molecule.
Request: GET /values?readout=Kd&item= 95 (antibody, V domains shown, constant regions without entry; synthetic humanized antibody light chain variable region sequence; synthetic humanized antibody heavy chain variable region sequence) VL: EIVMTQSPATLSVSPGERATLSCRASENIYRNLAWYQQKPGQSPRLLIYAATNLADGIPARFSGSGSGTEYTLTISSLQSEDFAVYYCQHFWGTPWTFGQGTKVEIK VH: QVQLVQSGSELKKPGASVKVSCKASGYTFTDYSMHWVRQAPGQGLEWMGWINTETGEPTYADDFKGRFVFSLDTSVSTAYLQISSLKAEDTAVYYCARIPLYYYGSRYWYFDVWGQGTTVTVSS
Response: 1
